target: T1, human IL-6 (human, UniProt P05231 30-212); assay: panning and screening on IL-6
T1 construct: the protein used was bought recombinant human IL-6 (R&D Systems), in part biotinylated; also called rhIL-6; hIL-6
experimental-endpoint: binding result

Observe how each entry below is paired with its result.
>>> meas_value("SEQ ID NO 745 (designed binder) CPPGEFKCNSGNCVSPTWGCDGVDDCGDDSDEASAICEAPEHTCLPSQFQCGSGYCISQRWVCDGENDCEDSSDEANCAGSVPT")
"binds"
>>> meas_value("SEQ ID NO 670 (designed binder) CPSNQFQCRNNGTCIPLPWLCDGVDDCGDDSDETSCTEPTCVPSQFQCGSGYCISQRWVCDGENDCEDSSDEANCAGSVPT")
"binds"
>>> meas_value("SEQ ID NO 669 (designed binder) CEASQFPCRNSERCVPPHLLCDGVNDCADGSDEIGCPPHTCVPSQFQCGSGYCISQRWVCDGENDCEDSSDEANCAGSVPT")
"binds"
>>> meas_value("SEQ ID NO 700 (designed binder) CRSNQFQCGSGYCIPVKWLCDGENDCEDSSDEESCPARTCPPSEFRCKGSGKCVPQHWLCDGVNDCEDDSDEKSCPPPT")
"binds"
>>> meas_value("SEQ ID NO 689 (designed binder) CRASQFQCGSGYCIPRPWLCDGVNDCEDSSDEANCAGSVPTCQPSQFRCRSGHCISGALGCDGEPDCGDGSDETGCRASAHT")
"binds"
>>> meas_value("SEQ ID NO 715 (designed binder) CLADQFKCHNTNICIPGRLGCDGDPDCEDDSDEKGCPPHTCLPSQFQCGSGYCISQRWVCDGENDCEDSSDEANCAGSVPT")
"binds"
>>> meas_value("SEQ ID NO 675 (designed binder) CRSSEFRCDSGHCLPLPWVCDGDDDCEDGSDEAQDCEPRTCVPSQFQCGSGYCISQRWVCDGENDCEDSSDEANCAGSVPT")
"binds"
>>> meas_value("SEQ ID NO 787 (designed binder) CLPNEFTCDSGNCVPQALGCDGDNDCEDNSDESPALCAAPAHTCQANEFTCSSGNCLSPALLCDGVDDCGDNSDETYCASPAPTCLPSQFQCGSGYCISQRWVCDGENDCEDSSDEANCAGSVPT")
"binds"

Now let's try a different one.
Data point: SEQ ID NO 629 (designed binder) CLSSQFQCSNGNCIPAAWLCDSDNDCGDDSDETSCPAPTCPSSQFQCSSGWCIPEDWRCDGVPDCGDGSDEASDHCGDSHILPFSTPGPST ; binding result = binds
